Experiment: qHTS for Inhibitors of ATXN expression: Validation of Cytotoxic Assay (AID 588349);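 note: cells exposed to compound for 72 hr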
Conditions: cytotoxicity counter-screen for ATXN expression inhibitors, cell viability; series mostly up to 57.1 µM
Results filed as inconclusive are left out. Active and inactive are the calls of the source. Calls come from the whole dose curve; as a rule, active = well fitted cell-killing curve with a large enough effect; inconclusive = small, poorly fitted or top-dose-only effect, or effect the other way; inactive = flat fitted curve, though single readings scatter.
Parameter call: string, one of active, inactive

# example entries with known answers
Any idea what this test logged for C=CCN(C1=NCCN1)c1c(Cl)cccc1Cl ? inactive

Similarly, NC(C(=O)O)c1cc(=O)[nH]o1 (stereo not given) ? inactive

Can you handle CCCN(CCC)C1CCc2cccc(O)c2C1 (stereo not given) next? inactive

Others:
Assay outcome for COc1ccc(CNC(=O)/C=C/c2ccc3[nH]cc(CCN(C)C)c3c2)cc1 : what was it? inactive

// next record Cc1o[nH]c(=O)c1CC(N)C(=O)O (stereo not given) inactive

CC(=O)OCC1=C(C(=O)O)N2C(=O)[C@@H](NC(=O)CCC[C@@H](N)C(=O)O)[C@H]2SC1 , same question. inactive

---

Assay: qHTS for Inhibitors of the Functional Ribonucleoprotein Complex (vRNP) of Lymphocytic Choriomeningitis Arenaviruses (LCMV): Viability assay - alamar blue signal for LCMV Primary Screen (AID 1347085); note: nearly all actives have a fitted effect of over 80% in size
Conditions: alamar blue viability counter-screen, LCMV vRNP screen cells; series mostly up to 57.5 µM
Records with an inconclusive call do not appear. Activity calls are given as the source filed them. Calls come from the whole dose curve; tested in HEK293 reporter line.
Allowed answers: Y for active, N for inactive

A selection of reference data follows.
// return assay outcome for N#CCCN N

What do we get for CN1CCc2cc(O)cc3c2[C@H]1Cc1ccc(O)c(O)c1-3 ? N

Same question, CCCN(CCC)CCc1c[nH]c2ccc(C(N)=O)cc12 this time N

Continue with Nc1ccc(CCN2CCN(c3cccc(C(F)(F)F)c3)CC2)cc1 N

And CC(C)[C@@]1(NC(=O)[C@@H]2C[C@@H]3c4cccc5[nH]cc(c45)C[C@H]3N(C)C2)O[C@@]2(O)[C@@H]3CCCN3C(=O)[C@H](Cc3ccccc3)N2C1=O ? N

Try the compound CCCN1CCC[C@@H](c2cccc(O)c2)C1 N

Again, but for NCC(O)c1cc(O)c(O)cc1F (stereo unspecified) N

Again, but for COc1ccc2c(c1)C13CCCCC1C(C2)N(C)CC3 (stereo unspecified) N

Please answer likewise for CN1C2CCC1CC(OC(c1ccccc1)c1ccccc1N)C2 (stereo unspecified) N

Now this one: Oc1ccc2c3c1O[C@H]1c4[nH]c5ccccc5c4C[C@@]4(O)C(C2)N(CC2CC2)CCC314 (stereo partly specified) N

Others:
Status in this test for NC(=O)c1ccc(OCC(O)CN2CC=C(c3ccc(F)cc3)CC2)cc1 (stereo unspecified) ? N

Another compound to look at: COC(=O)N1CCN(C(=O)Cc2ccc(Cl)c(Cl)c2)C(CN2CCCC2)C1 (stereo unspecified) N

// repeat for c1ccc2c(c1)[I+]c1ccccc1-2 and report Y

What about CC(C)(O)[C@@H]1C2OC(=O)[C@@H]1[C@]1(O)C[C@H]3O[C@]34C(=O)O[C@H]2[C@]14C (tested in a mixture with another compound) ? N

What about this compound? CN(C)[C@@H]1C(=O)C(C(N)=O)=C(O)[C@@]2(O)C(=O)C3=C(O)c4c(O)ccc(Cl)c4[C@@](C)(O)[C@H]3C[C@@H]12 N

C=CCN1CC[C@]23c4c5ccc(O)c4O[C@H]2/C(=N/NC(=O)c2ccccc2)CC[C@@]3(O)[C@H]1C5 , same question. N

Next compound up: C[Se]C[C@H](N)C(=O)O N

Also C[N+]1(C)CCC(OC(=O)C(c2ccccc2)c2ccccc2)CC1 , if possible. N

How about CCCC[N+]1(C)C2CC(OC(=O)[C@H](CO)c3ccccc3)CC1C1OC12 (stereo partly specified) ? N

Try the compound CC(N)c1cccc(Cl)c1Cl (stereo unspecified) N

Note, next up: CN(C(=O)Cc1ccc(Cl)c(Cl)c1)C(CN1CCCC1)c1cccc(OCC(=O)O)c1 (stereo unspecified) N

Same for CC1OC1P(=O)(O)O (stereo unspecified) N

Same again, this time with CCNC(=O)[C@H]1O[C@@H](n2cnc3c(N)ncnc32)[C@H](O)[C@@H]1O N

Check CCCN(CCC)[C@H]1CCc2c(F)ccc(O)c2C1 too. N

NCCCP(=O)(O)O ? N

Another compound to check: CC(C)NP(=O)(NC(C)C)OP(=O)(NC(C)C)NC(C)C N

Try this compound too: CC12NC(Cc3ccccc31)c1ccccc12 (stereo unspecified) N

Repeat with OCc1cnc[nH]1 N
